Data origin, for the record: paper PMC9372576

tgt: T1, GvpN fused to NGFP or CGFP (Halobacterium salinarum, UniProt Q9HI16 1-347)
T1 construct: GvpN of the p-vac region of Halobacterium salinarum; gvpN amplified from the p-vac region; GFP fragment at the N- or C-terminus, 14 or 16 aa linker; source: Hfx. volcanii WR340 transformant, split-GFP fusion in living cells
T1 sequence (looked up): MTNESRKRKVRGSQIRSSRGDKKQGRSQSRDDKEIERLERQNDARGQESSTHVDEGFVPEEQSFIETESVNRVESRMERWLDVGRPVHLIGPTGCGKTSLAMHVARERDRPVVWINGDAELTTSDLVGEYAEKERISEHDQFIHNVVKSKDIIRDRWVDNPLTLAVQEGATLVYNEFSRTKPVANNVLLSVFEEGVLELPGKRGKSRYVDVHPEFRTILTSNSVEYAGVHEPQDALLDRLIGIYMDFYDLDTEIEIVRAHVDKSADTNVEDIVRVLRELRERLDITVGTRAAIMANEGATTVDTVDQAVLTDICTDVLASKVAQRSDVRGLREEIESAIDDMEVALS
experimental.details: split reporter (BiFC, NanoBiT); split-GFP (NGFP and CGFP of salt-stable mGFP2) in Hfx. volcanii transformants, 24 h 37 °C then 24 h 30 °C; relative fluorescence (rf) against the wild type; the highest of eight tag combinations is given
condition.context: partners not purified

binder | relative fluorescence (rf)
GvpF fused to NGFP or CGFP (natural protein, Halobacterium salinarum, UniProt Q9HI21 1-213, looked up, GvpF (wild type) of the p-vac region of Halobacterium salinarum; R213 is the very last aa; parent of the GvpF variants; also called Fwt; WT; source: Hfx. volcanii WR340 transformant, split-GFP fusion in living cells) MTENLYTYGIIEQEDLELDVEGVAGAEQVYTVDYKTLSAVVSDIDTTDPERTDEDVEAHNNVLQEVLKHEEERTVVPMSFGMAFKSARTLKGVLRGARRALRSTLNDIEGTVELGVKILGPGDDTVPREEIQENVTDQLADLSINETENDLFTDRLIINKSYLVDFEKRDAFDSAIDDVEAEYDELTIQYTGPWPPYNFVDIHIGAEQQQGGR | < 5 LAU/mm^2
GvpM fused to NGFP or CGFP (natural protein, Halobacterium salinarum, UniProt P24377 1-84, looked up, accessory gas vesicle protein GvpM of Halobacterium salinarum; construct of earlier work; source: Hfx. volcanii WR340 transformant, split-GFP fusion in living cells) MEPTKDETHAIVEFVDVLLRDGAVIQADVIVTVADIPLIGISLRAAIAGMTTMTEYGLFEEWDAAHRQQSEAFTTSPTADRRED | < 5 LAU/mm^2
GvpH fused to NGFP or CGFP (natural protein, Halobacterium salinarum, UniProt P24372 1-182, looked up, accessory gas vesicle protein GvpH of Halobacterium salinarum; construct of earlier work; source: Hfx. volcanii WR340 transformant, split-GFP fusion in living cells) MVPDENDDASDDQSSQLSGLLDQLHTLVEVLADIEEEGGHRHESGRIDRGNARIDYDYDVSIGLGRADGSSYDEEPSSNRSRSEQRSGQQRTTEDSIHVETRGGTSGDELVVVADLPGVTDDDVDVALDTDEQALTLRVDDDVVERVVLDRPDVAITDMTLRNQVLEIRLARTSDTDGGEST | < 5 LAU/mm^2
GvpI fused to NGFP or CGFP (natural protein, Halobacterium salinarum, UniProt Q9HI24 1-144, looked up, accessory gas vesicle protein GvpI of Halobacterium salinarum; construct of earlier work; source: Hfx. volcanii WR340 transformant, split-GFP fusion in living cells) MSDKQQQKHKQKARQARVKAQINRDKARRNLLRQREKLARRRTRNRKQSEPRRDDSDGDDTDGETVKNPAAHSTMPPQKSNAENAVRNSHSTVPKTPKYSDVTARERLYGQRLHQKTAGGNSEASAPSDESASGSPTEDEVNDE | < 5 LAU/mm^2
GvpL fused to NGFP or CGFP (natural protein, Halobacterium salinarum, UniProt Q9HI27 1-281, looked up, accessory gas vesicle protein GvpL of Halobacterium salinarum; construct of earlier work; source: Hfx. volcanii WR340 transformant, split-GFP fusion in living cells) MTDHRPSPEEEQTTANEERTVSNGRYLYCVVDTTSSESATLSTTGVDDNPVYVVEADGVGAVVHDCETVYETEDLEQVKRWLVTHQQVVDAASDAFGTPLPMRFDTVLEGGDASIERWLEDHYEGFRDELASFAGVWEYRINLLWDSAPFEETIADRDDRLRELRQRQQQSGAGKKFLLEKQSDQRLQELKRERRTELADQLKEAITPVVNDLTEQDTNTPLQDEHSSIEKEQIVRFAVLADEDDETALGDRLDTIVEHEGVEIRFTGPWPPYTFAPDIGK | 16.9 LAU/mm^2
GvpO fused to NGFP or CGFP (natural protein, Halobacterium salinarum, UniProt O51968 1-119, looked up, GvpO of the p-vac region of Halobacterium salinarum; gvpO amplified from the p-vac region; GFP fragment at the N- or C-terminus, 14 or 16 aa linker; source: Hfx. volcanii WR340 transformant, split-GFP fusion in living cells) MADPANDRSEREEGGEDDETPPASDGNPSPSANSFTLSNAQTRAREAAQDLLEHQFEGMIKAESNDEGWRTVVEVVERNAVPDTQDIIGRYEITLDGTGDVTGYELLERYRRGDMKEEL | 12.5 LAU/mm^2
